Data provenance: PubChem BioAssay (NCI)

# Test system: SNB-75 CNS
# experimentalProtocol: NCI-60 one-dose screen, 48 h (100 = growth as untreated, 0 = no growth, -100 = all killed)
# assayConditions: 10 µM unless noted
This is part of a sample that, as a whole, favours compounds with a hit. Of some 83,000 tested, about 20% had one in any assay.

compound: CC[C@@H]1[C@@H](C)O[C@@](O)([C@@H](C)[C@H](O)[C@H](C)[C@H]2OC(=O)/C=C/C=C/[C@H](C)[C@@H]([C@@H](C)[C@@H](O)[C@H](C)[C@@]3(O)C[C@@H](O[C@H]4C[C@@H](O)[C@H](O)C(C)O4)[C@H](CC)[C@@H](C)O3)OC(=O)/C=C/C=C/[C@@H]2C)C[C@H]1O[C@@H]1C[C@@H](O)[C@H](O)C(C)O1 (some centres undefined)
growth / %: -97.6
//
compound: CNCc1cccnc1
growth / %: 104
//
compound: c1cc2c(c3c1CCNC3)OCO2
growth / %: 86.8
//
compound: CN(CCCCN(C)CCOS(C)(=O)=O)CCOS(C)(=O)=O
growth / %: 88.5
//
compound: CC1(C)N=C(N)N=C(N)N1c1ccc(CCCCc2ccc(Cl)c(S(=O)(=O)F)c2)c(Cl)c1
growth / %: 35.1
//
compound: CCOC(=O)CCC(NC(=O)C(Cc1ccc(N(CCCl)CCCl)cc1)NC=O)C(=O)OCC (centres undefined)
growth / %: 30.3
//
compound: O=C(O)CNC(=O)C(Cl)(Cl)Cl
growth / %: 85.1
//
compound: CN1CCC(O)(c2ccc(F)cc2)C(C(=O)c2ccc(F)cc2)C1 (centres undefined)
growth / %: 113
//
compound: O=C(CC1(O)C(=O)N(Cc2ccccc2)c2ccccc21)c1ccc(C(=O)NCC2CCC3(CC2)OOC2(CCCCC2)OO3)cc1 (centres undefined)
growth / %: -75.6

###

# System: NCI-H23 lung
# experimentalProtocol: NCI-60 one-dose screen, 48 h (100 = growth as untreated, 0 = no growth, -100 = all killed)
# assayConditions: 10 µM unless noted
This is part of a sample that, as a whole, favours compounds with a hit. Of some 83,000 tested, about 20% had one in any assay.
Decision: growth compared against 50%; not below it gives true, below it gives false.

molecule: CCC1CC(O)c2c(O)c3c(c(O)c2C1O)C(=O)c1cccc(O)c1C3=O (stereo not drawn) (tested in a mixture with another compound)
labelValue: false
--
molecule: CC(CO)NC1CCCCC1 (stereo not drawn)
labelValue: true
--
molecule: CC(=O)O[C@H](C[C@H](C(C)C)N(C)C(=O)[C@@H](NC(=O)[C@H]1CCCCN1C)C(C)C)c1nc(C(=O)NC2CCC(C(=O)O)CC2)cs1 (stereo partly drawn)
labelValue: true
--
molecule: CC(C)(C)C(=O)OCOP(=O)(OCOC(=O)C(C)(C)C)C1CCCN(O)C1=O (stereo not drawn)
labelValue: false
--
molecule: CC1CCCC(C[N+](C)(C)C)C1=O (stereo not drawn)
labelValue: true
--
molecule: C[C@@]1(CCCCCCCCCc2ccc(O)cc2)C[C@]2(C)OC(=O)C[C@@H]2OO1
labelValue: true
--
molecule: Cc1ccc(Nc2nc3c(s2)C2=CC[C@@H]4[C@H](CC[C@]5(C)C(=O)CC[C@@H]45)[C@@]2(C)CC3)cc1
labelValue: true
--
molecule: COC1OC(CO)C(O)C(O)[CH]1[Hg][O]C(C)=O (stereo not drawn)
labelValue: true
--
molecule: CC(C)=CCC[C@H](C(=O)O)[C@@H]1CC[C@]2(C)C3=C(CC[C@@]12C)[C@@]1(C)CC[C@H](O)C(C)(C)[C@@H]1CC3
labelValue: true
--
molecule: CC[C@H](C)[C@H](NC(=O)C12C3C4C1C1C2C3C41NC)C(=O)N(C)[C@H](C[C@@H](OC(C)=O)c1nc(C(=O)N[C@@H](Cc2ccccc2)C[C@H](C)C(=O)OC)cs1)C(C)C (stereo partly drawn)
labelValue: false
--
molecule: CCCCOc1ccc(C(N)Cc2ccccc2)cc1 (stereo not drawn)
labelValue: true
--
molecule: Cn1cc(C2=C(c3cn(C4CCN(Cc5ccccn5)CC4)c4ccccc34)C(=O)NC2=O)c2ccccc21
labelValue: true
--
molecule: C[C@@]12CC=C3c4nc(Nc5cccc(O)c5)sc4CC[C@]3(C)[C@H]1CC[C@]1(C)C(=O)CC[C@@H]21
labelValue: true
--
molecule: c1cnc2[nH]cc(-c3csc(-c4cn(CCCCN5CCCCC5)c5ccccc45)n3)c2c1
labelValue: true
--
molecule: CC1=C(CCCNS(C)(=O)=O)C2=C(C)C3(CC3)[C@@](C)(O)C(=O)C2=C1
labelValue: false
--
molecule: CCn1c2ccccc2c2cc(C(=O)c3ccc(C)c4ccccc34)ccc21
labelValue: false
--
molecule: CN1CCC(O)(c2ccc(F)cc2)C(C(=O)c2ccc(F)cc2)C1 (stereo not drawn)
labelValue: true
